Quick reference for protein stability index among some sequences
Test: protein stability index of a GFP-peptide fusion (GPS, HEK-293T) (PSI 1-6); higher = more stable;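 further: 24-mer peptide tiles fused after GFP, lentivirally expressed, FACS-sorted into six equal bins by GFP/DsRed ratio, decoded by Illumina sequencing, PSI is the read-weighted mean bin number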
Details: treatment: DMSO; c terminus: a fixed tail appended
measured.parameter: protein stability index

[[record]]
polymer_sequence = "CWNTSYCSIKCQQEHWHAEHKRTC [ZMYND11]"
measured_parameter = "protein stability index"
result_value = 2.31

[[record]]
polymer_sequence = "IEDAAEPKEPAPPNGSAAEPPTEA [PALM]"
measured_parameter = "protein stability index"
result_value = 5.54

[[record]]
polymer_sequence = "LLKALVSELSEHLRDPLTSLSHTE [FCHSD1]"
measured_parameter = "protein stability index"
result_value = 2.44

[[record]]
polymer_sequence = "WFGASVLSLLELLELLLDASALTL [SCNN1D]"
measured_parameter = "protein stability index"
result_value = 2.54

[[record]]
polymer_sequence = "EGTNGQLDYSFGDHTSEAVRNLFG [PCDHGC5]"
measured_parameter = "protein stability index"
result_value = 3.89

[[record]]
polymer_sequence = "LHLESELAQTRAEGQRQAQEYEAL [KRT18]"
measured_parameter = "protein stability index"
result_value = 5.07

[[record]]
polymer_sequence = "SNGFPERDPPRPGPSRPAEKPPRP [GCH1]"
measured_parameter = "protein stability index"
result_value = 5

[[record]]
polymer_sequence = "TSFCGQQFILERGEYPRWDAWSGS [CRYBA1]"
measured_parameter = "protein stability index"
result_value = 2.77

[[record]]
polymer_sequence = "IWAFLDVSFVERILKSQKERQCAL [FBXO39]"
measured_parameter = "protein stability index"
result_value = 2.41

[[record]]
polymer_sequence = "ILVYDIANRWSFEGMDRWIKKIEE [RAB40A]"
measured_parameter = "protein stability index"
result_value = 2.43

[[record]]
polymer_sequence = "FKCRNKTSGQVVAVKKFVESEDDP [CDKL4]"
measured_parameter = "protein stability index"
result_value = 4.7

[[record]]
polymer_sequence = "FREDGAYEFNPDFLEEAHEWNQKR [N4BP2L1]"
measured_parameter = "protein stability index"
result_value = 4.71

[[record]]
polymer_sequence = "LEALLEAAGIGKLSTADGKAFADP [ANKRD17]"
measured_parameter = "protein stability index"
result_value = 3.42

[[record]]
polymer_sequence = "RSRSLDIQPSSEGLGPTSEPFPSS [SPAG8]"
measured_parameter = "protein stability index"
result_value = 5.46

[[record]]
polymer_sequence = "LSFQEELLYWGIAEDHLDGCCKRR [KCNG1]"
measured_parameter = "protein stability index"
result_value = 2.35

[[record]]
polymer_sequence = "DVALVLTVLLEEETLEASVGPRET [TOR1AIP2]"
measured_parameter = "protein stability index"
result_value = 2.49

[[record]]
polymer_sequence = "LLSLDPVQDKTPLYSQLLQAYKWS [MED27]"
measured_parameter = "protein stability index"
result_value = 2.04

[[record]]
polymer_sequence = "LVRTLYKVQNECPGITRVYSIGRS [CPN1]"
measured_parameter = "protein stability index"
result_value = 2.27

[[record]]
polymer_sequence = "KKSSRNIFSIVFVFFVCFVPYHIA [P2RY14]"
measured_parameter = "protein stability index"
result_value = 3.31

[[record]]
polymer_sequence = "VTGMELEFKRLASSKAHTSRFISA [PTPRD]"
measured_parameter = "protein stability index"
result_value = 2.71

[[record]]
polymer_sequence = "RVEESALRALREKLFAHSSDLLSE [PPEF2]"
measured_parameter = "protein stability index"
result_value = 2.96

[[record]]
polymer_sequence = "TADEIPMEPGDIIGVAGNHWDGYS [FUT8]"
measured_parameter = "protein stability index"
result_value = 4.21

[[record]]
polymer_sequence = "TEFKELDGLREALANLRGLSEEER [CCDC89]"
measured_parameter = "protein stability index"
result_value = 5.05

[[record]]
polymer_sequence = "NIWASQSVLSACDNLSDLVMVRWN [IQUB]"
measured_parameter = "protein stability index"
result_value = 2.14

[[record]]
polymer_sequence = "RQDPRPHGPQLPTGIEGNWGRLLE [ZBED2]"
measured_parameter = "protein stability index"
result_value = 3.68

[[record]]
polymer_sequence = "VENRVVEEAKGLLDKVKDGGYRPA [ZBED1]"
measured_parameter = "protein stability index"
result_value = 4.82

[[record]]
polymer_sequence = "PPSMVAAGSVVAAVQGLNLRSPNN [CCND1]"
measured_parameter = "protein stability index"
result_value = 4.31

[[record]]
polymer_sequence = "RWLDESDAEMELRAKEEERLNKLR [HACD3]"
measured_parameter = "protein stability index"
result_value = 4.5

[[record]]
polymer_sequence = "EALGLEAEGAVPETQTLTGWSKGF [RHOBTB1]"
measured_parameter = "protein stability index"
result_value = 3.79

[[record]]
polymer_sequence = "SESPGSLSEVLAQPQGALAPPNCE [DNAAF3]"
measured_parameter = "protein stability index"
result_value = 5.44

[[record]]
polymer_sequence = "YCESHAKARVKPPEGYDVVAVYPN [PDLIM4]"
measured_parameter = "protein stability index"
result_value = 3.74

[[record]]
polymer_sequence = "ALDERAKVLHEDKQTREQLHSISD [TRIM29]"
measured_parameter = "protein stability index"
result_value = 5.25

[[record]]
polymer_sequence = "SFVYGAVPIGASIYVIGDLDTGTN [GAN]"
measured_parameter = "protein stability index"
result_value = 2.35

[[record]]
polymer_sequence = "VTEDLRLKDWEHSIALRNISLAKG [SCARA5]"
measured_parameter = "protein stability index"
result_value = 3.5

[[record]]
polymer_sequence = "IYNGGVEAVSTLLGAVAVFAVGYI [SLC19A2]"
measured_parameter = "protein stability index"
result_value = 2.37

[[record]]
polymer_sequence = "ERDRISTRRSSYEDSSLPSINALL [HNF4A]"
measured_parameter = "protein stability index"
result_value = 3.79

[[record]]
polymer_sequence = "TSFSNYYRTWNVVVHDWLYSYVYQ [SOAT2]"
measured_parameter = "protein stability index"
result_value = 3.11

[[record]]
polymer_sequence = "FAVFPSLNEEQTLQEVPTGLDSIS [ETS2]"
measured_parameter = "protein stability index"
result_value = 3.81

[[record]]
polymer_sequence = "KSAILVPSEKKVAIIRTPPKSPAT [MAP2]"
measured_parameter = "protein stability index"
result_value = 4.32

[[record]]
polymer_sequence = "VLTAVDGGTPARSGTTLISVIVLD [PCDHGC5]"
measured_parameter = "protein stability index"
result_value = 2.34

[[record]]
polymer_sequence = "QTSAFARQPRDELERVRVSCTIIF [TMEM175]"
measured_parameter = "protein stability index"
result_value = 2.46

[[record]]
polymer_sequence = "QFGQDGPISVHCSAGVGRTGVFIT [PTPRD]"
measured_parameter = "protein stability index"
result_value = 2.46

[[record]]
polymer_sequence = "LTKYPTDRDSIWKCLKFLGSRHPT [INTS4]"
measured_parameter = "protein stability index"
result_value = 2.38

[[record]]
polymer_sequence = "RGGDGEVASAPLQPPVPSLSEVKP [TRADD]"
measured_parameter = "protein stability index"
result_value = 5.34

